- Tested on: pooled human IgG (human IgG1, 2, 3 and 4)
Value kind: Enzyme Activity Endpoint Assay (purified): Fab′2 (ng/µL)
The figure you give is taken to be in ng/µL; do not add the unit.

According to the records, this protein PRT-651 (protein) MQITSVWTKGVTPLTPEQFRYNNEDVIHAPYLAHQGWYDITKAFDGKDNLLCGAATAGNMLHWWFDQNKTEIEAYLSKHPEKQKIIFNNQELFDLKAAIDTKDSQTNSQLFNYFRDKAFGNLSARQLGVMPDLVLDMFINGYYLNVGKTQSTDVNRPYQTRDKRGGIFDAVFTRGDQTTLLTARHDLKNKGLNDISTIIKQELTEGRALALSHTYANVSISHVINLWGADFNAEGNLEAIYVTDSDANASIGMKKYFVGINAHGHVAISAKKIEGENIGAQVLGLFTLSSGKDIWQKLSLEHHHHHH displays Enzyme Activity Endpoint Assay (purified): Fab′2 of 542

Origin of values: patent US20250027068
